The binders listed here are annotated with their kon.
Molecular target: T1, recombinant human CD33 protein (Sino Biologicals) (human, UniProt P20138 18-259)
T1 construct: Bought protein; also called recombinant CD33
T1 sequence (P20138 18-259 limits assumed): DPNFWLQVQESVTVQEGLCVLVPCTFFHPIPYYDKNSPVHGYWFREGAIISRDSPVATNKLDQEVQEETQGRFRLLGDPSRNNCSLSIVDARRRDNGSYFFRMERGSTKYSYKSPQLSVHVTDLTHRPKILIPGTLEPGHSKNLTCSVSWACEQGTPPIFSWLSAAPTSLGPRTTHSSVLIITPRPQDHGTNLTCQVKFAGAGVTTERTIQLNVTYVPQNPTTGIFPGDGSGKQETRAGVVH
Test: BLI (ForteBio), antibody on anti-human Fc sensor, CD33 10 nM
Experimental: Affinity parameters of the antibody variants for human CD33 were measured by BioLayer Interferometry in a ForteBio assay according to standard techniques (Estep et al. (2013) MAbs 5(2): 270-8) and were compared to those of the parental antibody (antibody 6C7H8) and the parental humanized antibody (antibody 6C71H5). Briefly, the antibodies were captured on anti-human Fc Biosensors (Pall ForteBio). […] Apparent affinity constants (KD) were calculated from the ratio kd/kₐ.
Answer in M⁻¹ s⁻¹, number only, no unit symbol.

The cases that follow already have their kon on record.
binder	kon, M⁻¹ s⁻¹
anti-CD33 antibody 6C7H20 (antibody, V domains shown, VH/VL only) VH: EVQLVESGGGLVQPGGSLRLSCAGSGFTFSNYPMNWVRQAPGKGLEWVAEIRLKSNNYVTNYAASVKGRFTISRDDSKNSVYLQMNSLKTEDTGVYYCTRAGYYVPFAYWGQGTLVTVSS VL: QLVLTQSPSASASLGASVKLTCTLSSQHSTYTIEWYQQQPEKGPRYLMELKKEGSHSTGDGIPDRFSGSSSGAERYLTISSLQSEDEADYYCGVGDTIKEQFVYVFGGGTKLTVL	739000
anti-CD33 antibody 6C7H26 (antibody, V domains shown, VH/VL only) VH: EVQLVESGGGLVQPGGSLRLSCAGSGFTFSNYIMNWVRQAPGKGLEWVAEIRLKSNNYVTNYAASVKGRFTISRDDSKNSVYLQMNSLKTEDTGVYYCTRAGYYVPFAYWGQGTLVTVSS VL: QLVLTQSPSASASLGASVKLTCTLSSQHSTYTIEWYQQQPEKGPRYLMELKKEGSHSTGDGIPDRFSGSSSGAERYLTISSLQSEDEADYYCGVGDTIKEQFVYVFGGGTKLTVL	1.32e+06
anti-CD33 antibody 6C7H25 (antibody, V domains shown, VH/VL only) VH: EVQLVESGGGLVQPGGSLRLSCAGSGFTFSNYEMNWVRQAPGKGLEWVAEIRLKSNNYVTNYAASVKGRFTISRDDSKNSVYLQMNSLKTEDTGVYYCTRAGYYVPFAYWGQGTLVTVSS VL: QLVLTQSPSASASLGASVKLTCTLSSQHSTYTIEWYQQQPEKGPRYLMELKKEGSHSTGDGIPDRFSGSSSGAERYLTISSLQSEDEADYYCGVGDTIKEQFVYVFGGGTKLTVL	529000

Could you now consider this next binder?
Q: Supply recorded kon for anti-CD33 antibody 6C7H12 (antibody, V domains shown, VH/VL only) VH: EVQLVESGGGLVQPGGSLRLSCAGSGFTFSNYGMNWVRQAPGKGLEWVAEIRLKSNNYVTNYAASVKGRFTISRDDSKNSVYLQMNSLKTEDTGVYYCTRAGYYVPFAYWGQGTLVTVSS VL: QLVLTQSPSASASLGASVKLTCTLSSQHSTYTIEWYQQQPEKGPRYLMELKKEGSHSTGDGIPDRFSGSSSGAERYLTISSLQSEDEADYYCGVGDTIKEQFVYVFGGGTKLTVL here.
A: 749000
